- experiment-summary: Volume distribution was measured in mouse after administration of compound 20 mg/kg intravenously
- Assay type: ADME, organism-based
- Design: dose 20 mg/kg, route intravenous
- cond: in vivo, iv, read-out: Vdss
metric: Vd
Just so you know, I need the unit written after the number.

Q. If you can, please state the reported Vd value of CCCC[C@@H](C[C@@H](CCc1ccc(-c2ccc(F)cc2)cc1)C(=O)N[C@H](C(=O)NC)C(C)(C)C)C(=O)O .
A. 0.2 L/kg

---

I'd be grateful if you could share measured pKi for these entries.
- study-target: Stromelysin-1 (Homo sapiens, UniProt P08254)
- Sequence (P08254 whole entry): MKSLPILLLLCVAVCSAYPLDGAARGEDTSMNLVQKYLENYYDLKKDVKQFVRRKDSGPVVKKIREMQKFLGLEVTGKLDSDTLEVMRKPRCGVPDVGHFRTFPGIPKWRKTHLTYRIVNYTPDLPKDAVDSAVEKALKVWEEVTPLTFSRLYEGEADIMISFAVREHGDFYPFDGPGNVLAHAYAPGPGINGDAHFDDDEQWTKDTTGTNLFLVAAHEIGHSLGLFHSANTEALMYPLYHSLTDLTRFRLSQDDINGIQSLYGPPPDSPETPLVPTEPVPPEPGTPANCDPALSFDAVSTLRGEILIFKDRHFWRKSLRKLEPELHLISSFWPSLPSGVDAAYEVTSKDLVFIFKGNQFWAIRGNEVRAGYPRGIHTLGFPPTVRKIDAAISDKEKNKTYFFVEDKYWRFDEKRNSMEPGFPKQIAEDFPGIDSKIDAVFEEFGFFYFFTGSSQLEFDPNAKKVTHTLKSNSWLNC
Give bare numbers, as −log10 of the molar value.

// worked examples, pKi included
1. CCCC[C@@H](C[C@@H](CCc1ccc(-c2c(C)cccc2C)cc1)C(=O)N[C@H](C(=O)NC)C(C)(C)C)C(=O)O ... 5.92
2. CCCC[C@@H](C[C@@H](CCc1ccc(-c2ccccc2S(N)(=O)=O)cc1)C(=O)N[C@H](C(=O)NC)C(C)(C)C)C(=O)O ... 5.03
3. CC(C)C[C@H](NC(=O)[C@H](CCc1ccc(-c2ccc(F)cc2)cc1)C[C@H](C)C(=O)O)C(=O)Nc1ccccc1 ... 7.42

Q. If you can, please state the reported pKi value of CCCC[C@@H](C[C@@H](CCc1ccc(/C=C/c2ccccc2)cc1)C(=O)N[C@H](C(=O)NC)C(C)(C)C)C(=O)O .
A. 7.19

---

- experiment-summary: Plasma half-life was measured in mouse after administration of compound 20 mg/kg intravenously
- Format: ADME, organism-based
- Set-up: dose 20 mg/kg, route intravenous
- cond: iv
metric: half-life (h)
Answers are plain numbers, in h.

Q. If you can, please state the reported half-life value of CCCC[C@@H](C[C@@H](CCc1ccc(-c2ccc(F)cc2)cc1)C(=O)N[C@H](C(=O)NC)C(C)(C)C)C(=O)O .
A. 2.7

---

- experiment-summary: Clearance was measured in mouse after administration of compound 20 mg/kg intravenously
- Assay type: ADME, organism-based
- Parameters: dose 20 mg/kg, route intravenous
- cond: in vivo, iv
metric: clearance (L/h/kg)
Answers are plain numbers, in L/h/kg.

Q. If you can, please state the reported clearance value of CCCC[C@@H](C[C@@H](CCc1ccc(-c2ccc(F)cc2)cc1)C(=O)N[C@H](C(=O)NC)C(C)(C)C)C(=O)O .
A. 0.066

---

- experiment-summary: Volume distribution was measured in rabbit after administration of compound 12 mg/kg intravenously
- cond: in vivo, iv, read-out: Vdss
metric: Vd (L/kg)
Answers are plain numbers, in L/kg.

Q. If you can, please state the reported Vd value of CCCC[C@@H](C[C@@H](CCc1ccc(-c2ccc(F)cc2)cc1)C(=O)N[C@H](C(=O)NC)C(C)(C)C)C(=O)O .
A. 0.2

---

- study-target: 72 kDa type IV collagenase (Homo sapiens, UniProt P08253)
- Sequence (P08253 whole entry): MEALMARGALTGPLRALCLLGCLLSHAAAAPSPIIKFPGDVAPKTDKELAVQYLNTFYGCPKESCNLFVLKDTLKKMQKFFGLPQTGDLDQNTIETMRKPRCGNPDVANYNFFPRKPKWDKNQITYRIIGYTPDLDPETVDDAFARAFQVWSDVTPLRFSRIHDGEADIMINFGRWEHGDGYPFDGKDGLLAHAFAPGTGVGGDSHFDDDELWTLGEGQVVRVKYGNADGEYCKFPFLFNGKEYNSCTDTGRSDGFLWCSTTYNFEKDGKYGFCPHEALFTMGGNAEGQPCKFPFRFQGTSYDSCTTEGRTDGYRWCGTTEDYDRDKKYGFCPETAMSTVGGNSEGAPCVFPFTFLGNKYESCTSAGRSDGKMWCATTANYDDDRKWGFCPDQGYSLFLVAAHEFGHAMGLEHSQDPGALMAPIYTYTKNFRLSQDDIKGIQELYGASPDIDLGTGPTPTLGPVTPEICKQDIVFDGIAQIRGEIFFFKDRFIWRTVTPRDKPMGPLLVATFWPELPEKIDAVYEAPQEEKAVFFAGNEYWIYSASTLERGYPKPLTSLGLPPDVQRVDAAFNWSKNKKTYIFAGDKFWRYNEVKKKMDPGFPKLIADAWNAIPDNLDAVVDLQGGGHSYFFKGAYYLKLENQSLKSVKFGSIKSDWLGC
# note: exactly 80 nM is not below, so it is f; use t for Ki strictly under it

Completed entries (count: 5):
1) CCCC[C@@H](C[C@@H](CCc1ccc(-c2cc(Cl)cc(Cl)c2)cc1)C(=O)N[C@H](C(=O)NC)C(C)(C)C)C(=O)O ... f
2) CCCC[C@@H](C[C@@H](CCc1ccc(-c2ccc(OC)cc2)cc1)C(=O)N[C@H](C(=O)NC)C(C)(C)C)C(=O)O ... t
3) CCCC[C@@H](C[C@@H](CCc1ccc(OCc2ccccc2)cc1)C(=O)N[C@H](C(=O)NC)C(C)(C)C)C(=O)O ... f
4) CCCC[C@@H](C[C@@H](CCc1ccc(-c2ccc(C(=O)OC)cc2)cc1)C(=O)N[C@H](C(=O)NC)C(C)(C)C)C(=O)O ... t
5) CCCC[C@@H](C[C@@H](CCc1ccc(-c2ccc(Cl)cc2)cc1)C(=O)N[C@H](C(=O)NC)C(C)(C)C)C(=O)O ... t

Q. Strictly below 80 nM in Ki? CCCC[C@@H](C[C@@H](CCc1ccc(-c2ccc(F)cc2)cc1)C(=O)N[C@H](C(=O)Nc1ccncc1)C(C)(C)C)C(=O)O
A. t

Q. Now consider CCCC[C@@H](C[C@@H](CCc1ccc(-c2ccc(F)cc2)cc1)C(=O)N[C@H](C(=O)Nc1ccccc1)C(C)(C)C)C(=O)O .
A. f
